Assignment: determine reported IRF reporter for the given compounds.
System: RAW-Dual (murine macrophage reporter line)
Assay: IRF reporter (Lucia luciferase) activity fold change vs agonist alone; higher = enhanced IRF activity
Settings: modulator concentration 10 µM; agonist: 3'3'-cGAMP 10 ug/mL
Respond with the number and no other words.

Task: For the record C=CCNC(N)=S , what value of IRF reporter is listed for RAW-Dual (murine macrophage reporter line)?
Output: 0.898

Task: Ok, now CCCCSc1nnc2c(n1)OC(c1cccc(F)c1)Nc1ccc(Br)cc1-2 (stereo not given)
Output: 0.914

Task: Ok, now NC(=O)CCC(N)C(=O)O (stereo not given)
Output: 0.883

Task: Ok, now Cc1cc(C)n(CC2CCN(Cc3ccc(Br)cc3)CC2)n1
Output: 0.913

Task: Ok, now Cl.NC1=NCC2c3ccccc3Cc3ccccc3N12 (stereo not given)
Output: 0.898
